- System: murine red blood cells
- assay-explanation: Red blood cell hemolysis
- Type: cell-based, mouse
- Experimental: Selectivity of cyclic peptides for bacterial over mammalian cells was evaluated by measuring red blood cell hemolytic activities as described in Tosteson, M. T. Holmes, S. J., Razin, M. and Tosteson, D. C. Melittin Lysis of Red Cells, J. Membrane Biol. 87, 35-44(1985). Heparinized murine blood was centrifuged at 1000×g for 10 minutes. The supernatant and the buffy coat were removed. […] Aliquots of the supernatant were diluted 2 times with saline solution and the absorbance was measured at 560 nm.
Where a name gives a salt, the structure may show the parent alone. Non-standard residues stand in square brackets, D forms with d. Residues, ends and D or L forms follow the SMILES beside them.
Each entry below carries its reported RBC Hemolysis (HD50).
Hey, just send me the number, nothing else.

compound	RBC Hemolysis (HD50)
CC(C)C[C@H]1NC(=O)[C@H](Cc2c[nH]c3ccccc23)NC(=O)[C@@H](CCCNC(=N)N)NC(=O)[C@H](CCC(N)=O)NC(=O)[C@@H](CCCCN)NC(=O)[C@H](Cc2c[nH]c3ccccc23)NC(=O)[C@@H](CC(C)C)NC(=O)[C@H](Cc2c[nH]c3ccccc23)NC1=O [[KQRWLWLW-HCl] (8)] (cyclo([dK]Q[dR]W[dL]W[dL]W))	70

Let's switch to this compound now.
IN: So what's the measured RBC Hemolysis (HD50) for this one? CC(C)C[C@H]1NC(=O)[C@H](Cc2c[nH]c3ccccc23)NC(=O)[C@@H](Cc2c[nH]cn2)NC(=O)[C@H](Cc2c[nH]cn2)NC(=O)[C@@H](CO)NC(=O)[C@H](Cc2c[nH]c3ccccc23)NC(=O)[C@@H](CC(C)C)NC(=O)[C@H](Cc2c[nH]c3ccccc23)NC1=O [SEQ ID NO:15, SHHWLWLW] (cyclo([dS]H[dH]W[dL]W[dL]W))
OUT: 20
